tested on: MS2 coat protein; experiment: apparent KD of MS2 coat protein; designed switch direction (-1 OFF switch, 1 ON switch): -1; higher = weaker reporter binding; settings: Eterna round: R95; input ligand: microRNA oligo, concentration not stated
metric: apparent KD of MS2 coat protein

Here are 3 sequences together with their reported answers.
[
  {
    "sequence": "UCGCUGCGAGGAUAUACGUUUGCGCGCUUUCGUUUGCGCGUACAUGAGGAUCACCCAUGUAGAAGGCGCGCCGC [Apr-15 SS2-8] (puzzle: Exclusion 2)",
    "apparent KD of MS2 coat protein": "13.2 nM"
  },
  {
    "sequence": "GAGUGACAUGAGGAUCACCCAUGUAAGGAUAUACGGUUGGUAGAGAGAGGGAAAAGAGGUAGAAGGUACGAAGG [JR_Exclu1_Sub056] (puzzle: Exclusion 1)",
    "apparent KD of MS2 coat protein": "56 nM"
  },
  {
    "sequence": "CUUUUGGCAGGAUAUGCUUUUUUUGACAUGAGGAUCACCCAUGUGAUGCAUUUUGGGUUUGCAGAAGGGCCUGAGU [JR_E5_Sub036] (puzzle: Exclusion 5)",
    "apparent KD of MS2 coat protein": "56.9 nM"
  }
]

## Task // map AGUACUAACUCGAAAGUGUUAGUACAAUAAGCUUGUGAAACAUGAGGAUCACCCAUGUCCUCAUAAGCUCGUCUUAU [salish99_TOv2_r3_022] (puzzle: Sensor v3, turn-off variant 2) to recorded apparent KD of MS2 coat protein (system: MS2 coat protein)
## Result 739 nM

## Task Do the same for AGUAACUAUCACGAAAGUGAUAGUUACAACAAGUGAUAAACAUGAGGAUCACCCAUGUCCUCAUUUGUUCGUCUUAU [Sensor 3 - 14] (puzzle: Sensor v3, turn-off variant 2) please
## Result 373 nM

----------
test system: MS2 coat protein; experiment: apparent KD of MS2 coat protein; higher = weaker reporter binding; details: Eterna round: R107; input ligand: tryptophan 2.4 mM
Binning of apparent KD of MS2 coat protein into classes: band 1: < 40 nM; band 2: ≥ 40 nM and < 80 nM; band 3: ≥ 80 nM

## Task Input UGUAUGUGAUUUGAUACCAGACCAACUGGUAAAACAUGAGGAUCACCCAUGUAAACUUGGGUCCCUUGGCAGCAAAUCGCAUACU [SSTheo B #22] ; output its category
## Result band 3

## Task Param item: ACACAUGAGGAUCAUCCAUGUGCCCAUGAAGGAGCGUGGGAAACCACAGGUAGGUCGCAUGACAUGAGGAUCACCCAUGUUUAUU [#03 Exclusion - Arginine A]
## Result band 3

----------
Reported values of apparent KD of K4 kissing-loop reporter for individual entries
tested on: K4 kissing-loop RNA reporter; assay: apparent KD of K4 kissing-loop reporter; higher = weaker reporter binding; settings: Eterna round: R107; input ligand: tryptophan 2.4 mM;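 note: bound reporter read as fluorescence of individual clusters on recovered sequencing chips by microscopy, with normalized cluster intensities fitted with a binding model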
Your answer is read as nM, so omit the unit and give the number.

## Task Given the entry ACACGCAACUAUAGACCAGUGAUGUUGGAACGAGGACCGGUACGGCCGCCACUCGAGCGGACGAUCUACGCCUCUUAUGCUAACG [theeternabot_exclusion_KL_Trp_A_15] , report its measured apparent KD of K4 kissing-loop reporter.
## Result 350

## Task Next sequence up: AAUGUACAGGGAAGGAGCGUAGUCCAGUGAUGUUGGAAUUAAAUUCCUGUGAUGUUGGUUAUACAGGUAGGUCGCCCUAAAGUGC [KL-XARG-B21]
## Result 93.3

## Task Please answer likewise for UUCAGUGAUGAUGAACACUGUUGUAUAAACUAGGAUAUGCUGAUAAGCAGAAGGAGUGAUGUUCCGUUCAUCAUCAGAAUUAAAU [KL-XFMN-A4]
## Result 255

----------
test system: MS2 coat protein; experiment: apparent KD of MS2 coat protein; designed switch direction (-1 OFF switch, 1 ON switch): -1; higher = weaker reporter binding; conditions: Eterna round: R95; input ligand: none
metric: apparent KD of MS2 coat protein (nM)
Number only, in nM; omit the unit.

[
  {
    "sequence": "AGUAACUAUCACGAAAGUGAUAGUUACACAAGUAGUGAAACAUGAGGAUCACCCAUGUCCUCAUUUGCUCGUCUUAU [Sensor 3 - 33] (puzzle: Sensor v3, turn-off variant 2)",
    "measurement": 925
  },
  {
    "sequence": "ACAAGCUUUUUGUUCGUCUUAUACACUCCUAAGAGGACAACAUGAGGAUCACCCAUGUAACAAAGACGGACUCAUGU [Sesor Array 11 - Jieux - Sensor v3, turn-off variant 2] (puzzle: Sensor v3, turn-off variant 2)",
    "measurement": 12
  },
  {
    "sequence": "AAGAAACAUGAGGAUCACCCAUGUGAGGAUAUGAGUAAGAAAAGAAAAGAAAGAAGACUCAGAAGGCACAAAGG [salish99-ex1_r3_074] (puzzle: Exclusion 1)",
    "measurement": 86.8
  },
  {
    "sequence": "UAUUAUCAAGUAAGAUCCUACAUGAGGAUCACCCAUGUGCUCGUCUUAUAAGGUACUGUGACGAAAGUCACGGUACC [Sensor 3, v1 - 74] (puzzle: Sensor v3, turn-off variant 1)",
    "measurement": 33.8
  }
]

## Task Name the reported apparent KD of MS2 coat protein value associated with the sequence UAAAGAGCAGGAUAUCUAAUGUAUCACAUGAGGAUCACCCAUGUCCAGCGAAAGCUGGAGGGAGAAGGGCUCUAAU [Mat - Exclusion 5 - Eli mod - D103] (puzzle: Exclusion 5)
## Result 130

----------
system: MS2 coat protein; assay: apparent KD of MS2 coat protein; higher = weaker reporter binding; conditions: Eterna round: R107; input ligand: tryptophan 2.4 mM
Would you mind labelling by apparent KD of MS2 coat protein? At or over 30 nM is 1, under is -1.

[
  {
    "sequence": "UAAUGCAGGUCGGCCGCCACUACAACAUGAGGAUCACCCAUGUACAUGUUGUAGUACGGUAUGAGUAGGACCGGGACCUGCAUAA [Trp-Ms2-M'-T'-(MT)'_Design1]",
    "system_under_test": "MS2 coat protein",
    "class_name": 1
  },
  {
    "sequence": "AGCGACAUGCGUGAUACCAGCUACAUGAGGAUCACCCAUGUACGUAGGAAACUACUGUGUAGCCCUUGGCAGCAUAGUGCAUGUC [Exclusion - Theophylline B (Freestyle 21)]",
    "system_under_test": "MS2 coat protein",
    "class_name": -1
  },
  {
    "sequence": "ACAUGAGGAUCACCCAUGUAUUACCGGGAAGGAGCGCGUGAAAACGCAGGUAGGUCGCUCGGCGUCGUGCUGUAAAGCACGACGA [#1 Same State - Arginine A Attempt #25 (HarryS)]",
    "system_under_test": "MS2 coat protein",
    "class_name": -1
  },
  {
    "sequence": "ACGCCCAGGUAGGCUUAGUGGGAUAUGGAAGGAGCGCCGAUGCAGGCAGGUAGGUCGCCAUAGAACAUGAGGAUCACCCAUGUAA [#05 Same State - Arginine A]",
    "system_under_test": "MS2 coat protein",
    "class_name": -1
  }
]

Continue with the next sequence.
## Task Say whether ACGUAAAGCAGAAGGAGCGUCUUAAUUCUACAUGAGGAUCACCCAUGUUUACAUUGAAUAUGACAGGUAGGUCGCUGAAGUACGA [JR_SSArginiB_Sub001] shows apparent KD of MS2 coat protein of 30 nM or more.
## Result -1

----------
apparent KD of MS2 coat protein overview
tested on: MS2 coat protein; experiment: apparent KD of MS2 coat protein; designed switch direction (-1 OFF switch, 1 ON switch): -1; higher = weaker reporter binding; details: input ligand: none
Only the number, expressed in nM, is required.

Recorded results for 2 sequences are shown here.
[
  {
    "sequence": "CGGGUCGGAGGAUAUACAGAAGCAUCUGUGUCGGGAAUAUGACAUGAGGAUCACCCAUGUAGAAGGCCGAUCAC [Eternabot (L2) Solution 98] (Eterna round: R97, puzzle: Exclusion 2)",
    "metric": "apparent KD of MS2 coat protein",
    "units_symbol": "nM",
    "measurement": 80
  },
  {
    "sequence": "AAAAGGCAGGGAGGAUAUGCUUACCUGGGUCGUCUUCAAACAUGAGGAUCACCCAUGUAGUCGACGCAGAAGGCCCUCAAAGCC [Mat - Exclusion NG 2 - Mod of JL - D58] (Eterna round: R96, puzzle: Exclusion NG 2)",
    "metric": "apparent KD of MS2 coat protein",
    "units_symbol": "nM",
    "measurement": 22.7
  }
]

## Task apparent KD of MS2 coat protein lookup needed for CGAUAUAACGUAGGAUAUCUGAGAAAUAGAUGAAGAGAAGGACGACAUGAGGAUCACCCAUGUGAUCUAUCAAUAUUAUACAUG [Prohibition 96 - Jieux - Exclusion NG 1] (Eterna round: R96, puzzle: Exclusion NG 1) , thanks.
## Result 604

## Task Also, CCAGCGGACAAAGGAUAUUGCGGUGGCCGGCUCGGCGUACCGAGCCUACAUGAGGAUCACCCAUGUAAGAAGGUUGUCGUAGGA [Mat - Exclusion NG 2 - Mod of JL - D72] (Eterna round: R96, puzzle: Exclusion NG 2) please.
## Result 22.7

## Task What do you have for ACAUGUCAUCGAGGAUAUUGGACACAUGAGGAUCACCCAUGUACUCGGAGGCUCUACCAUGAGUUCGAGAAGGCGAUGUACAUG [Ex NG2 #76] (Eterna round: R96, puzzle: Exclusion NG 2) ?
## Result 365

## Task Repeat with GACCAAUAGGUAGGAUAUCAUUGCGAUUAGCUAUGAGAAGGACCACAUGAGGAUCACCCAUGUCCUCUAAUUAGCCAAUUGGUA [8th something] (Eterna round: R96, puzzle: Exclusion NG 1)
## Result 90.9

## Task Follow-up entry: GGCACACAUGAGGAUCACCCAUGUGAGGAUAUGUGGCGAUCGUCGAUAGACGAUAGCCACAGAAGGCACAGGCC [Mat - Exclusion 1 - Eli Mod - D21] (Eterna round: R97, puzzle: Exclusion 1)
## Result 19.2
